biological target: recombinant human G9a protein (Homo sapiens, UniProt Q96KQ7); construct: purchased BPS Bioscience Inc. #51001; experiment: G9a inhibitory activity test (ALPHA); format: biochemical; conditions: read-out: Inhibitory activity (G9a IC50)
Sequence (Q96KQ7 785-1210 limits assumed): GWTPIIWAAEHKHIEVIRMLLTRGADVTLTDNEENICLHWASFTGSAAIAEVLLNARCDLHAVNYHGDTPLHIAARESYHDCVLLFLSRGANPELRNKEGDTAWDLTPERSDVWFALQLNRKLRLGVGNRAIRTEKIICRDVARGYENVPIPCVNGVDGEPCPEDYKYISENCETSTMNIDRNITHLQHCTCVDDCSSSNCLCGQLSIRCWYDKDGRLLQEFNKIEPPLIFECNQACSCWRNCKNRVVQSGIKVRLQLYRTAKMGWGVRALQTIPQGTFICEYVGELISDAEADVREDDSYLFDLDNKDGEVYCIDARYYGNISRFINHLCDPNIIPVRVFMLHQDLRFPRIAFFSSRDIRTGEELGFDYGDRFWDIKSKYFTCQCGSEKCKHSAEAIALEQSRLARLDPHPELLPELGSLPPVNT
Hi there, I'd appreciate the recorded IC50 for every entry that follows.

*Q* Please report the recorded IC50 for CCCCC(NC(=O)c1[nH]c2c(c1C)C(=O)CC(C)(C)C2)C(=O)NCc1cccc(CN(C)C)n1 (centres unmarked) [Example 4] .
*A* ≥ 200 nM

*Q* Entry Cc1c(C(=O)NC(CCC2CC2)C(=O)NCc2ccc(CN(C)C)cc2)[nH]c2c1C(=O)CC(C)(C)C2 (centres unmarked) [Example 1-149] : reported IC50 = ?
*A* < 50 nM

*Q* Quick one: IC50 of COc1ccc(NC(=O)C(CCC2CC2)NC(=O)c2ccc(CCN(C)C)cc2)cn1 (centres unmarked) [Example 6-73] ?
*A* ≥ 200 nM

*Q* I'd like to know its IC50. The molecule in question is CCCCC(NC(=O)c1sc(-c2cccnc2)nc1C)C(=O)Nc1ccc(OC2CCN(C)CC2)nc1 (centres unmarked) [Example 6-99]
*A* ≥ 200 nM

*Q* Could you tell me which IC50 is on file for Cc1c(C(=O)NC(CCC2CC2)C(=O)N2CCc3c(CN4CCOCC4)cccc32)[nH]c2c1C(=O)CC(C)(C)C2 (centres unmarked) [Example 1-144] ?
*A* ≥ 200 nM

*Q* Find the recorded IC50 belonging to CCCCC(NC(=O)c1[nH]c2c(c1C)C(=O)CC(C)(C)C2)C(=O)NCc1ccc(CCN)cc1 (centres unmarked) [Example 24-3] and report it.
*A* < 50 nM

*Q* Quick one: IC50 for CCCC[C@H](NC(=O)c1[nH]c2c(c1C)C(=O)CC(C)(C)C2)c1nc2ccc(OCCN3CCCCC3)cc2[nH]1 [Example 37-1] ?
*A* ≥ 200 nM

*Q* Entry under review: CCCCC(NC(=O)c1cc(S(N)(=O)=O)ccc1OC)C(=O)Nc1ccc(OC2CCN(C)CC2)nc1 (centres unmarked) [Example 6-96] . Reported IC50?
*A* ≥ 200 nM

*Q* Fill blank: measured IC50 of the molecule CCCCC(NC(=O)c1[nH]c2c(c1C)C(=O)CC(C)(C)C2)C(=O)Nc1ccc(OCCNC)nc1 (centres unmarked) [Example 24-1] is ____.
*A* 50 to 200 nM

*Q* For COc1ccc2c(c1)CCN2C(=O)C(CCC1CC1)NC(=O)c1[nH]c2c(c1C)C(=O)CC(C)(C)C2 (centres unmarked) [Example 1-130] , what is its reported IC50?
*A* ≥ 200 nM

*Q* What value of IC50 has been recorded for this entry: CCCCC(NC(=O)c1[nH]c2c(c1C)C(=O)CC(C)(C)C2)C(=O)N[C@@H]1CCc2ccccc21 (some centres unmarked) [Example 1-111]
*A* 50 to 200 nM

*Q* Which IC50 reading was recorded for the molecule CCCC[C@H](NC(=O)c1[nH]c2c(c1C)C(=O)CC(C)(C)C2)C(=O)Nc1ccc(OC2CCN(C)CC2)cc1 [Example 6-32] ?
*A* < 50 nM

*Q* Name the recorded IC50 for Cc1c(C(=O)NC(CCC2CC2)C(=O)N2CCc3cc(O)ccc32)[nH]c2c1C(=O)CC(C)(C)C2 (centres unmarked) [Example 1-132] .
*A* ≥ 200 nM

*Q* For CCCCC(NC(=O)c1[nH]c2c(c1C)C(=O)CC(C)(C)C2)C(=O)Nc1ccc(N2CCC3(CNC3)C2)nc1 (centres unmarked) [Example 27] , what is its reported IC50?
*A* 50 to 200 nM

*Q* Given CCCC[C@H](NC(=O)c1[nH]c2c(c1C)C(=O)CC(C)(C)C2)C(=O)NCc1ccc(N2CCNCC2)cc1 [Example 26-8] , state its recorded IC50.
*A* < 50 nM

*Q* Name the recorded IC50 for CCCCC(NC(=O)c1[nH]c(C)c(C(=O)OCC)c1C)C(=O)Nc1ccc(OC2CCN(C)CC2)nc1 (centres unmarked) [Example 6-91] .
*A* ≥ 200 nM

*Q* Data request, read-out IC50, for Cc1c(C(=O)NC(CCC2CC2)C(=O)N2CCc3c(OCCN(C)C)cccc32)[nH]c2c1C(=O)CC(C)(C)C2 (centres unmarked) [Example 1-122]
*A* 50 to 200 nM

*Q* Which IC50 is listed for Cc1c(C(=O)NC(CCC2CC2)C(=O)N(C)Cc2ccccc2)[nH]c2c1C(=O)CC(C)(C)C2 (centres unmarked) [Example 6-19] ?
*A* ≥ 200 nM

*Q* For CCc1cc(C)ccc1NC(=O)C(CCC1CC1)NC(=O)c1[nH]c2c(c1C)C(=O)CC(C)(C)C2 (centres unmarked) [Example 14-1] , what is its reported IC50?
*A* < 50 nM

*Q* For CCCCC(NC(=O)c1ccc(Nc2ccncc2)cc1)C(=O)Nc1ccc(OC)nc1 (centres unmarked) [Example 6-100] , what is its reported IC50?
*A* < 50 nM

*Q* Data request, read-out IC50, for CCCC[C@H](NC(=O)c1[nH]c2c(c1C(C)C)C(=O)CC(C)(C)C2)C(=O)Nc1ccccc1 [Example 6-36]
*A* 50 to 200 nM

*Q* What does the record list as IC50 for CCCC[C@H](NC(=O)c1[nH]c2c(c1C)C(=O)CC(C)(C)C2)C(=O)N1CCc2c(OC3CCN(C)CC3)cccc21 [Example 6-106] ?
*A* ≥ 200 nM

*Q* Name the reported IC50 value associated with the molecule CCCCC(NC(=O)c1[nH]c2c(c1C)C(=O)CC(C)(C)C2)C(=O)NCc1ccc(CN2CCCCC2)cc1 (centres unmarked) [Example 18-9]
*A* < 50 nM

*Q* GET /values?readout=IC50&item= CCCCC(NC(=O)c1[nH]c2c(c1C)C(=O)CC(C)(C)C2)C(=O)Nc1cccc2c1CCNC2 (centres unmarked) [Example 25-1]
*A* ≥ 200 nM

*Q* GET /values?readout=IC50&item= CCCCC(NC(=O)c1[nH]c2c(c1C)C(=O)CC(C)(C)C2)C(=O)Nc1ccc(CN(C)C)cc1 (centres unmarked) [Example 18-3]
*A* < 50 nM

*Q* Would you mind telling me what IC50 value was observed for Cc1c(C(=O)NC(CCC2CC2)C(=O)NCc2ccccc2)[nH]c2c1C(=O)CC(C)(C)C2 (centres unmarked) [Example 6-18] ?
*A* 50 to 200 nM

*Q* If you can, please state the reported IC50 value of CCCC[C@H](NC(=O)c1[nH]c2c(c1C)C(=O)CC(C)(C)C2)C(=O)NCc1ccc(N2CCN(C)CC2)cc1 [Example 22-2] .
*A* 50 to 200 nM

*Q* Could you tell me which IC50 is on file for CCc1cc(C#N)ncc1NC(=O)C(CCC1CC1)NC(=O)c1[nH]c2c(c1C)C(=O)CC(C)(C)C2 (centres unmarked) [Example 15-2] ?
*A* 50 to 200 nM

*Q* // query IC50 value for entry COc1ccc(NC(=O)C(CCC2CC2)NC(=O)c2ccc(OCCN(C)C)cc2)cn1 (centres unmarked) [Example 6-67]
*A* ≥ 200 nM
